Molecular target: human CYP11B2 (Homo sapiens, UniProt P19099)
Construct: mitochondrial fraction
Sequence (P19099 25-503): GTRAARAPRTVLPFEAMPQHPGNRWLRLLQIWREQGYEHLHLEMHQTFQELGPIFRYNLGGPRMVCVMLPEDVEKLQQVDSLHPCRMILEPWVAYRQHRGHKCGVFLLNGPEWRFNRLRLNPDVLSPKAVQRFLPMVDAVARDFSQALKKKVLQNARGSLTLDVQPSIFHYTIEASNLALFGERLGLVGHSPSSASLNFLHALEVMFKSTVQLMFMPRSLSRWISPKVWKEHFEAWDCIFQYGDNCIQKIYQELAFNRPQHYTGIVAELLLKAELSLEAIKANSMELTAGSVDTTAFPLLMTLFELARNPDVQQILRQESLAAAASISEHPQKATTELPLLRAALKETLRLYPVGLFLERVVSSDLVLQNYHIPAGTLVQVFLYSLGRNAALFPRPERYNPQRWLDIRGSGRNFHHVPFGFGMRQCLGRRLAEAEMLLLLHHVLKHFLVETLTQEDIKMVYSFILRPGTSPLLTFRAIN
Test: Inhibitory effect on hCYP11B2: aldosterone production in mitochondrial fraction of V79 cells stably expressing human CYP11B2, HTRF
Settings: 0.5 μmol/L deoxycorticosterone, 150 μmol/L NADPH, 1.5-2 hours at room temperature
Protocol: Experimental Example 1 (Inhibitory Effect on hCYP11B2) The pcDNA3.1-human CYP11B2 plasmid was transfected into a Chinese hamster lung fibroblast V79 cell line to produce a cell line stably expressing human CYP11B2 gene. […] IC50 (nmol/L) was calculated by analyzing the aldosterone production inhibition rate (%) of each concentration of compounds by non-linear regression to a logistic curve.
pIC50: −log10 of the molar value.
readoutLabel: pIC50

Take a look at these entries with their results.
{"molecule": "O=C(CN1CCN(c2cc(-c3ccc(F)cc3)cnn2)CC1)NC1CCN(CCO)CC1 [Example 78]", "readoutLabel": "pIC50", "numericResult": 7.55}
{"molecule": "CC(C)NC(=O)CN1CCN(c2cncc(-c3ccc4cnn(C)c4c3)c2)CC1 [Example 15]", "readoutLabel": "pIC50", "numericResult": 7.74}

(a) CO[C@H]1CC[C@@H](NC(=O)CN2CCN(c3cncc(-c4ccc5c(cnn5C)c4)n3)CC2)CC1 [Example 28]
(b) Cc1ccc(-c2cncc(N3CCN(CC(=O)NCC4(O)CCN(C)CC4)CC3)n2)cc1 [Example 21]
Of a and b , which shows the smaller pIC50 value? State the label of the item chosen.
b
(b: 7.55, a: 8.00)

Hello, the source for this data is patent US10717731B2, in case you need it.
